Test system: p-S6 level in MCF7 cells
Experiment: Western blot of p-S6 level in MCF7 cells after combination treatment with Rapa/Rapalink and candidate compound (blockade score)
Format: cell-based
Details: 10 nM Rapa + 10 μM candidate compound, 24 h, p-S6 level as fraction of DMSO control
Rapamycin Blockade listing for selected molecules.

>  <Molecule>
CO[C@H]1C/C(C)=C/[C@@H](CCCSCCN(C)C)C(=O)C[C@H](O)[C@@H](C)[C@@H](/C(C)=C/[C@@H]2CC[C@@H](O)[C@H](OC)C2)OC(=O)[C@@H]2CCCCN2C(=O)C(=O)[C@]2(O)O[C@H]([C@@H](OC)C1)[C@@H](OC)C[C@H]2C

>  <Rapamycin Blockade>
3 (>70%)

$$$$
>  <Molecule>
CCC(C)(C)C(=O)C(=O)N1CCCC[C@H]1C(=O)O[C@H](CCc1ccc(OC)c(OC)c1)c1cccc(NCC(=O)O)c1 [ZZY01-060A]

>  <Rapamycin Blockade>
0 (<20%)

$$$$
>  <Molecule>
CCC(C)(C)C(=O)C(=O)N1CCCC[C@H]1C(=O)O[C@H](CCc1ccc(OC)c(OC)c1)c1cccc(NC(=O)CNN)c1

>  <Rapamycin Blockade>
1 (20-40%)

$$$$
>  <Molecule>
CCC(C)(C)C(=O)C(=O)N1CCCC[C@H]1C(=O)O[C@H](CCc1ccc(OC)c(OC)c1)c1cccc(N(CC(=O)O)CC(=O)O)c1 [ZZY01-060B]

>  <Rapamycin Blockade>
1 (20-40%)

$$$$
>  <Molecule>
CCC(C)(C)C(=O)C(=O)N1CCCC[C@H]1C(=O)O[C@H](CCc1ccc(OC)c(OC)c1)c1cccc(NCCN)c1

>  <Rapamycin Blockade>
0 (<20%)

$$$$
>  <Molecule>
CCC(C)(C)C(=O)C(=O)N1CCCC[C@H]1C(=O)O[C@H](CCc1ccc(OC)c(OC)c1)c1cccc(OCC(=O)O)c1

>  <Rapamycin Blockade>
0 (<20%)

$$$$

* * *

Biological target: UniProt:P62942
Test: FKBP12 binding assay (fluorescence polarization)
Conditions: read-out: Kd FKBP12
# if measured Kd < 20 nM: criterion met  # else: criterion not met

>  <Compound>
CO[C@H]1C/C(C)=C/[C@@H](CCCc2cccc[n+]2[O-])C(=O)C[C@H](O)[C@@H](C)[C@@H](/C(C)=C/[C@@H]2CC[C@@H](O)[C@H](OC)C2)OC(=O)[C@@H]2CCCCN2C(=O)C(=O)[C@]2(O)O[C@H]([C@@H](OC)C1)[C@@H](OC)C[C@H]2C [ZZY05-092 / ZZY06-041]

>  <Test Target>
UniProt:P62942

>  <Class>
criterion met

$$$$
>  <Compound>
CCC(C)(C)C(=O)C(=O)N1CCCC[C@H]1C(=O)O[C@H](CCc1ccc(OC)c(OC)c1)c1cccc(NC(=O)CCOCCOCCN)c1 [ZZY03-077]

>  <Test Target>
UniProt:P62942

>  <Class>
criterion not met

$$$$
>  <Compound>
CCC(C)(C)C(=O)C(=O)N1CCCC[C@H]1C(=O)O[C@H](CCc1ccc(OC)c(OC)c1)c1cccc(NC(=O)Cc2ccccn2)c1 [ZZY03-083]

>  <Test Target>
UniProt:P62942

>  <Class>
criterion not met

$$$$
>  <Compound>
CCC(C)(C)C(=O)C(=O)N1CCCC[C@H]1C(=O)O[C@H](CCc1ccc(OC)c(OC)c1)c1cccc(NC(=O)CN(C)C)c1 [ZZY01-044]

>  <Test Target>
UniProt:P62942

>  <Class>
criterion met

$$$$
>  <Compound>
CCC(C)(C)C(=O)C(=O)N1CCCC[C@H]1C(=O)O[C@H](CCc1ccc(OC)c(OC)c1)c1cccc(NC(=O)CCOCCN)c1 [ZZY03-084]

>  <Test Target>
UniProt:P62942

>  <Class>
criterion met

$$$$

* * *

Biological target: FKBP12 (Homo sapiens (Human), UniProt P62942)
Sequence (P62942 whole entry): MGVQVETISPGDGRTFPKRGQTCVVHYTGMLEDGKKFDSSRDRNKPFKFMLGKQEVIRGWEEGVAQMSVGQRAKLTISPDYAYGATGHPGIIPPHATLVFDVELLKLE
Assay: FKBP12 binding assay (fluorescence polarization)
Settings: read-out: Kd FKBP12
Measure Name: Kd (µM)

>  <Given Smiles>
CCC(C)(C)C(=O)C(=O)N1CCCC[C@H]1C(=O)O[C@H](CCc1ccc(OC)c(OC)c1)c1cccc(NC(=O)CN2CCOCC2)c1

>  <Test Target>
FKBP12 (Homo sapiens (Human), UniProt P62942)

>  <Value Unit>
µM

>  <Endpoint Result>
0.015

$$$$
>  <Given Smiles>
CCC(C)(C)C(=O)C(=O)N1CCCC[C@H]1C(=O)O[C@H](CCc1ccc(OC)c(OC)c1)c1cccc(NC(=O)CNN)c1

>  <Test Target>
FKBP12 (Homo sapiens (Human), UniProt P62942)

>  <Value Unit>
µM

>  <Endpoint Result>
0.021

$$$$
>  <Given Smiles>
CCC(C)(C)C(=O)C(=O)N1CCCC[C@H]1C(=O)O[C@H](CCc1ccc(OC)c(OC)c1)c1cccc(NC(=O)CN2CCN(C)CC2)c1

>  <Test Target>
FKBP12 (Homo sapiens (Human), UniProt P62942)

>  <Value Unit>
µM

>  <Endpoint Result>
0.0125

$$$$
>  <Given Smiles>
CO[C@H]1C/C(C)=C/[C@@H](CCCC(=O)O)C(=O)C[C@H](O)[C@@H](C)[C@@H](/C(C)=C/[C@@H]2CC[C@@H](O)[C@H](OC)C2)OC(=O)[C@@H]2CCCCN2C(=O)C(=O)[C@]2(O)O[C@H]([C@@H](OC)C1)[C@@H](OC)C[C@H]2C

>  <Test Target>
FKBP12 (Homo sapiens (Human), UniProt P62942)

>  <Value Unit>
µM

>  <Endpoint Result>
0.00149

$$$$
>  <Given Smiles>
CCC(C)(C)C(=O)C(=O)N1CCCC[C@H]1C(=O)O[C@H](CCc1ccc(OC)c(OC)c1)c1cccc(NC(=O)Cc2cccc[n+]2[O-])c1

>  <Test Target>
FKBP12 (Homo sapiens (Human), UniProt P62942)

>  <Value Unit>
µM

>  <Endpoint Result>
0.0288

$$$$

* * *

Recorded measurements of RapaLink-1 Blockade, one per entry
Tested on: p-S6 level in MCF7 cells
Assay: Western blot of p-S6 level in MCF7 cells after combination treatment with Rapa/Rapalink and candidate compound (blockade score)
Assay type: cell-based
Details: 10 nM Rapalink + 10 μM candidate compound, 24 h, p-S6 level as fraction of DMSO control

>  <Given Smiles>
CO[C@H]1C/C(C)=C/[C@@H](CCCC(=O)Nc2ccccn2)C(=O)C[C@H](O)[C@@H](C)[C@@H](/C(C)=C/[C@@H]2CC[C@@H](O)[C@H](OC)C2)OC(=O)[C@@H]2CCCCN2C(=O)C(=O)[C@]2(O)O[C@H]([C@@H](OC)C1)[C@@H](OC)C[C@H]2C

>  <RapaLink-1 Blockade>
3 (>70%)

$$$$
>  <Given Smiles>
CCC(C)(C)C(=O)C(=O)N1CCCC[C@H]1C(=O)O[C@H](CCc1ccc(OC)c(OC)c1)c1cccc(NC(=O)Cc2cccc[n+]2[O-])c1

>  <RapaLink-1 Blockade>
0 (<20%)

$$$$

* * *

Entries and their measured Rapamycin Blockade follow.
Tested on: p-S6 level in MCF7 cells
Assay: Western blot of p-S6 level in MCF7 cells after combination treatment with Rapa/Rapalink and candidate compound (blockade score)
Assay type: cell-based
Conditions: 10 nM Rapa + 10 μM candidate compound, 24 h, p-S6 level as fraction of DMSO control

>  <Compound>
CCC(C)(C)C(=O)C(=O)N1CCCC[C@H]1C(=O)O[C@H](CCc1ccc(OC)c(OC)c1)c1cccc(NC(=O)CN2CCN(C)CC2)c1

>  <Test Target>
p-S6 level in MCF7 cells

>  <Rapamycin Blockade>
3 (>70%)

$$$$
>  <Compound>
CO[C@H]1C/C(C)=C/[C@@H](C/C=C/C(=O)O)C(=O)C[C@H](O)[C@@H](C)[C@@H](/C(C)=C/[C@@H]2CC[C@@H](O)[C@H](OC)C2)OC(=O)[C@@H]2CCCCN2C(=O)C(=O)[C@]2(O)O[C@H]([C@@H](OC)C1)[C@@H](OC)C[C@H]2C

>  <Test Target>
p-S6 level in MCF7 cells

>  <Rapamycin Blockade>
0 (<20%)

$$$$
>  <Compound>
CCC(C)(C)C(=O)C(=O)N1CCCC[C@H]1C(=O)O[C@H](CCc1ccc(OC)c(OC)c1)c1cccc(N)c1 [SLF, reference compound]

>  <Test Target>
p-S6 level in MCF7 cells

>  <Rapamycin Blockade>
3 (>70%)

$$$$
>  <Compound>
CCC(C)(C)C(=O)C(=O)N1CCCC[C@H]1C(=O)O[C@H](CCc1ccc(OC)c(OC)c1)c1cccc(NC(=O)CCl)c1

>  <Test Target>
p-S6 level in MCF7 cells

>  <Rapamycin Blockade>
0 (<20%)

$$$$
>  <Compound>
CCC(C)(C)C(=O)C(=O)N1CCCC[C@H]1C(=O)O[C@H](CCc1ccc(OC)c(OC)c1)c1cccc(NC(=O)Cc2cccc[n+]2[O-])c1

>  <Test Target>
p-S6 level in MCF7 cells

>  <Rapamycin Blockade>
3 (>70%)

$$$$
>  <Compound>
CCC(C)(C)C(=O)C(=O)N1CCCC[C@H]1C(=O)O[C@H](CCc1ccc(OC)c(OC)c1)c1cccc(NC(=O)CCOCCOCCN)c1

>  <Test Target>
p-S6 level in MCF7 cells

>  <Rapamycin Blockade>
3 (>70%)

$$$$
>  <Compound>
CCC(C)(C)C(=O)C(=O)N1CCCC[C@H]1C(=O)O[C@H](CCc1ccc(OC)c(OC)c1)c1cccc(NC(=O)C[N+](C)(C)C)c1

>  <Test Target>
p-S6 level in MCF7 cells

>  <Rapamycin Blockade>
1 (20-40%)

$$$$
>  <Compound>
CCC(C)(C)C(=O)C(=O)N1CCCC[C@H]1C(=O)O[C@H](CCc1ccc(OC)c(OC)c1)c1cccc(NC(=O)CNC(=N)N)c1

>  <Test Target>
p-S6 level in MCF7 cells

>  <Rapamycin Blockade>
2 (40%-70%)

$$$$
>  <Compound>
CO[C@H]1C/C(C)=C/[C@@H](CCCSCCN)C(=O)C[C@H](O)[C@@H](C)[C@@H](/C(C)=C/[C@@H]2CC[C@@H](O)[C@H](OC)C2)OC(=O)[C@@H]2CCCCN2C(=O)C(=O)[C@]2(O)O[C@H]([C@@H](OC)C1)[C@@H](OC)C[C@H]2C

>  <Test Target>
p-S6 level in MCF7 cells

>  <Rapamycin Blockade>
3 (>70%)

$$$$
>  <Compound>
CCC(C)(C)C(=O)C(=O)N1CCCC[C@H]1C(=O)O[C@H](CCc1ccc(OC)c(OC)c1)c1cccc(NC(=O)CN2CCOCC2)c1

>  <Test Target>
p-S6 level in MCF7 cells

>  <Rapamycin Blockade>
3 (>70%)

$$$$
>  <Compound>
CCC(C)(C)C(=O)C(=O)N1CCCC[C@H]1C(=O)O[C@H](CCc1ccc(OC)c(OC)c1)c1cccc(NC(=O)CN)c1

>  <Test Target>
p-S6 level in MCF7 cells

>  <Rapamycin Blockade>
3 (>70%)

$$$$
>  <Compound>
C=CC(=O)Nc1cccc([C@@H](CCc2ccc(OC)c(OC)c2)OC(=O)[C@@H]2CCCCN2C(=O)C(=O)C(C)(C)CC)c1

>  <Test Target>
p-S6 level in MCF7 cells

>  <Rapamycin Blockade>
3 (>70%)

$$$$
>  <Compound>
CCC(C)(C)C(=O)C(=O)N1CCCC[C@H]1C(=O)O[C@H](CCc1ccc(OC)c(OC)c1)c1cccc(NC(=O)CN=[N+]=[N-])c1

>  <Test Target>
p-S6 level in MCF7 cells

>  <Rapamycin Blockade>
2 (40%-70%)

$$$$
>  <Compound>
CCC(C)(C)C(=O)C(=O)N1CCCC[C@H]1C(=O)O[C@H](CCc1ccc(OC)c(OC)c1)c1cccc(NC(=O)CCOCCN)c1

>  <Test Target>
p-S6 level in MCF7 cells

>  <Rapamycin Blockade>
2 (40%-70%)

$$$$
>  <Compound>
CCC(C)(C)C(=O)C(=O)N1CCCC[C@H]1C(=O)O[C@H](CCc1ccc(OC)c(OC)c1)c1cccc(NC(=O)CCC(=O)O)c1

>  <Test Target>
p-S6 level in MCF7 cells

>  <Rapamycin Blockade>
1 (20-40%)

$$$$
>  <Compound>
CO[C@H]1C/C(C)=C/[C@@H](CCCC(=O)O)C(=O)C[C@H](O)[C@@H](C)[C@@H](/C(C)=C/[C@@H]2CC[C@@H](O)[C@H](OC)C2)OC(=O)[C@@H]2CCCCN2C(=O)C(=O)[C@]2(O)O[C@H]([C@@H](OC)C1)[C@@H](OC)C[C@H]2C

>  <Test Target>
p-S6 level in MCF7 cells

>  <Rapamycin Blockade>
2 (40%-70%)

$$$$
>  <Compound>
CCC(C)(C)C(=O)C(=O)N1CCCC[C@H]1C(=O)O[C@H](CCc1ccc(OC)c(OC)c1)c1cccc(OCCN)c1

>  <Test Target>
p-S6 level in MCF7 cells

>  <Rapamycin Blockade>
1 (20-40%)

$$$$
>  <Compound>
CCC(C)(C)C(=O)C(=O)N1CCCC[C@H]1C(=O)O[C@H](CCc1ccc(OC)c(OC)c1)c1cccc(NC(=O)CN(C)C)c1

>  <Test Target>
p-S6 level in MCF7 cells

>  <Rapamycin Blockade>
3 (>70%)

$$$$
>  <Compound>
CCC(C)(C)C(=O)C(=O)N1CCCC[C@H]1C(=O)O[C@H](CCc1ccc(OC)c(OC)c1)c1cccc(NC(=O)CS)c1

>  <Test Target>
p-S6 level in MCF7 cells

>  <Rapamycin Blockade>
0 (<20%)

$$$$
>  <Compound>
CCC(C)(C)C(=O)C(=O)N1CCCC[C@H]1C(=O)O[C@H](CCc1ccc(OC)c(OC)c1)c1cccc(NC(=O)[C@H](C)N)c1

>  <Test Target>
p-S6 level in MCF7 cells

>  <Rapamycin Blockade>
3 (>70%)

$$$$
>  <Compound>
CCC(C)(C)C(=O)C(=O)N1CCCC[C@H]1C(=O)O[C@H](CCc1ccc(OC)c(OC)c1)c1cccc(NC(=O)CNc2ccccn2)c1

>  <Test Target>
p-S6 level in MCF7 cells

>  <Rapamycin Blockade>
2 (40%-70%)

$$$$
>  <Compound>
CCC(C)(C)C(=O)C(=O)N1CCCC[C@H]1C(=O)O[C@H](CCc1ccc(OC)c(OC)c1)c1cccc(NC(=O)Cc2ccccn2)c1

>  <Test Target>
p-S6 level in MCF7 cells

>  <Rapamycin Blockade>
3 (>70%)

$$$$
